target: human JAK1 (a.a. 837-1142) (Homo sapiens, UniProt P23458); construct: The catalytic domains of human JAK1 (a.a. 837-1142); His tag (N); made in house; host or cells: insect cells (baculovirus); assay: In vitro JAK kinase assay (HTRF, phosphorylation of biotinylated peptide), JAK1; format: biochemical; conditions: 1 mM ATP; Examples 12-91; read-out: JAK1 IC50 (nM) @ 1 mM ATP
Sequence (P23458 849-1154): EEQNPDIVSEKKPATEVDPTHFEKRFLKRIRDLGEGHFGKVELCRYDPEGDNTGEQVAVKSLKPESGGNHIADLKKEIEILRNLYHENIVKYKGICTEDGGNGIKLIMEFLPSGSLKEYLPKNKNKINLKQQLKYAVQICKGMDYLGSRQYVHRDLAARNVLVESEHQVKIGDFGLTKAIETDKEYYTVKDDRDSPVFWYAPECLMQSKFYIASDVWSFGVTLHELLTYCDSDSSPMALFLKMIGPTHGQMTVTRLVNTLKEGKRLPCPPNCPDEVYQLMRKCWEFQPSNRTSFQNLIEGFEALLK
Structures can show the parent of a compound that is named as a salt.
measured_property: IC50

See these solved cases before continuing.
>  <compound>
N#CCC(CN1CCN(C(=O)c2cc(Cl)cc(OC(F)(F)F)c2)CC1)n1cc(-c2ncnc3[nH]ccc23)cn1 (stereo not drawn)

>  <IC50>
10 to 50 nM

$$$$
>  <compound>
COc1ccc(C(=O)N2CCN(CC(CC#N)n3cc(-c4ncnc5[nH]ccc45)cn3)CC2)cc1F (stereo not drawn) [Example 18, phosphate Salt]

>  <IC50>
10 to 50 nM

$$$$
>  <compound>
N#CCC(CN1CCN(C(=O)c2c(F)cc(F)cc2F)CC1)n1cc(-c2ncnc3[nH]ccc23)cn1 (stereo not drawn)

>  <IC50>
< 10 nM

$$$$

IC50 in this record for N#CCC(CN1CCN(C(=O)c2ccc(C(F)F)cc2F)CC1)n1cc(-c2ncnc3[nH]ccc23)cn1 (stereo not drawn) : < 10 nM

IC50 in this record for N#CCC(CN1CCN(C(=O)c2cccs2)CC1)n1cc(-c2ncnc3[nH]ccc23)cn1 (stereo not drawn) : < 10 nM

Cited source: patent US9249145B2
